Assay: Isoelectric focusing electrophoresis (pI observed)
Type: physicochemical
Conditions: pH 3 to 10 gel
Experimental: The isoelectric point of each low-pI TM2 was measured by isoelectric focusing electrophoresis using an XCell SureLock Mini-Cell (Invitrogen). […] The isoelectric point of the high-affinity TM2 was measured by isoelectric focusing electrophoresis using an XCell SureLock Mini-Cell (Invitrogen). […] The isoelectric point of HALU TM2 was measured by isoelectric focusing electrophoresis using an XCell SureLock Mini-Cell (Invitrogen). […]
Answer each item with its documented pI observed.

Below are worked cases with known answers.
MOLECULE	pI observed
TM2 D40NR104EK141E: TM2 mutant having mutation of D40N and R104EK141E; SEQ ID NO: 24 (protein, Synthetic TM2 D40NR104EK141E) MSDVQSSLTGTWYNELNSKMELTANKDGTLTGKYLSKVGNVYVPYPLSGRYNLQPPAGQGVALGWAVSWENSKIHSATTWSGQFFSESSPVILTQWLLSSSTAEGDVWESTLVGNDSFTKTAPTEQQIAHAQLHCRAPRLE	7.3 to 7.5
TM2 K26A: TM2 mutant in which lysine at position 26 was replaced with alanine; SEQ ID NO: 4 (protein, Synthetic TM2 K26A) MSDVQSSLTGTWYNELNSKMELTANADGTLTGKYLSKVGDVYVPYPLSGRYNLQPPAGQGVALGWAVSWENSKIHSATTWSGQFFSESSPVILTQWLLSSSTARGDVWESTLVGNDSFTKTAPTEQQIAHAQLHCRAPRLK	7.3 to 7.6

Report pI observed for each item below.
1. TM2 K141E: TM2 mutant in which lysine at position 141 was replaced with glutamic acid; SEQ ID NO: 10 (protein, Synthetic TM2 K141E) MSDVQSSLTGTWYNELNSKMELTANKDGTLTGKYLSKVGDVYVPYPLSGRYNLQPPAGQGVALGWAVSWENSKIHSATTWSGQFFSESSPVILTQWLLSSSTARGDVWESTLVGNDSFTKTAPTEQQIAHAQLHCRAPRLE
2. TM2 K19T: TM2 mutant in which lysine at position 19 is replaced with threonine; SEQ ID NO: 18 (protein, Synthetic TM2 K19T) MSDVQSSLTGTWYNELNSTMELTANKDGTLTGKYLSKVGDVYVPYPLSGRYNLQPPAGQGVALGWAVSWENSKIHSATTWSGQFFSESSPVILTQWLLSSSTARGDVWESTLVGNDSFTKTAPTEQQIAHAQLHCRAPRLK

1: 6.6 to 7.2; 2: 6.6 to 7.5

# lookup: pI observed of TM2 R104E: TM2 mutant in which arginine at position 104 was replaced with glutamic acid; SEQ ID NO: 8 (protein, Synthetic TM2 R104E) MSDVQSSLTGTWYNELNSKMELTANKDGTLTGKYLSKVGDVYVPYPLSGRYNLQPPAGQGVALGWAVSWENSKIHSATTWSGQFFSESSPVILTQWLLSSSTAEGDVWESTLVGNDSFTKTAPTEQQIAHAQLHCRAPRLK 7.0 to 7.5
